Value source: ChEMBL document CHEMBL4831490

- assay_protocol: Toxicity in 3hpf zebrafish AB embryo assessed as NOAEL measured 96 hpf
- Design: species or system Danio rerio
- measurement_parameters: in vivo, 96 h
Listed compounds paired with reported NOAEL
property: NOAEL (µM)

# smiles_input, readout_units, measurement_qualifier, data_value
records = [
    ("CCCCCCCC(=O)OC[C@H]1O[C@@H](Oc2cc(O)cc(/C=C/c3ccc(O)cc3)c2)[C@H](O)[C@@H](O)[C@@H]1O", "µM", "=", 1),
    ("CC(C)[Si](Oc1ccc(/C=C/c2cc(O[C@@H]3O[C@H](CO)[C@@H](O)[C@H](O)[C@H]3O)cc(O[Si](C(C)C)(C(C)C)C(C)C)c2)cc1)(C(C)C)C(C)C", "µM", "=", 1000),
    ("CCCC(=O)Oc1ccc(/C=C/c2cc(O[Si](CC)(CC)CC)cc(O[Si](CC)(CC)CC)c2)cc1", "µM", "=", 100),
    ("CC[Si](CC)(CC)Oc1cc(/C=C/c2ccc(O)cc2)cc(O[Si](CC)(CC)CC)c1", "µM", "=", 100),
    ("CC(C)[Si](Oc1ccc(/C=C/c2cc(O)cc(O[Si](C(C)C)(C(C)C)C(C)C)c2)cc1)(C(C)C)C(C)C", "µM", ">", 1000),
    ("CC(C)[Si](Oc1cc(/C=C/c2ccc(O[C@H]3O[C@@H](CO)[C@H](O)[C@@H](O)[C@@H]3O)cc2)cc(O[Si](C(C)C)(C(C)C)C(C)C)c1)(C(C)C)C(C)C", "µM", "=", 1000),
    ("CCNC(=O)Oc1ccc(/C=C/c2cc(O[Si](C(C)C)(C(C)C)C(C)C)cc(O[Si](C(C)C)(C(C)C)C(C)C)c2)cc1", "µM", "=", 1000),
]

---

- assay_protocol: Toxicity in 3hpf zebrafish AB embryo assessed as LOAEL measured 96 hpf
- Parameters: species or system Danio rerio
- measurement_parameters: in vivo, 96 h
property: LOAEL (µM)

# smiles_input, readout_units, measurement_qualifier, data_value
measured = [
    ("CC(C)[Si](Oc1cc(/C=C/c2ccc(O[C@H]3O[C@@H](CO)[C@H](O)[C@@H](O)[C@@H]3O)cc2)cc(O[Si](C(C)C)(C(C)C)C(C)C)c1)(C(C)C)C(C)C", "µM", "=", 1000),
    ("CC(C)[Si](Oc1ccc(/C=C/c2cc(O[C@@H]3O[C@H](CO)[C@@H](O)[C@H](O)[C@H]3O)cc(O[Si](C(C)C)(C(C)C)C(C)C)c2)cc1)(C(C)C)C(C)C", "µM", "=", 1000),
    ("Oc1ccc(/C=C/c2cc(O)cc(O)c2)cc1", "µM", ">", 1000),
]

---

- assay_protocol: Hydrolytic stability of the compound in mouse serum assessed as parent compound remaining measured after 24 hrs
- Format: ADME, cell-free
- measurement_parameters: read-out: Stability

# smiles_input, readout_units, remaining at 24 h
rows = [
    ("CCCCCCCC(=O)OC[C@@H]1O[C@H](Oc2ccc(/C=C/c3cc(O[Si](C(C)C)(C(C)C)C(C)C)cc(O[Si](C(C)C)(C(C)C)C(C)C)c3)cc2)[C@@H](O)[C@H](O)[C@H]1O", "%", 15),
]
